- targetOfAssay: Escherichia coli DNA gyrase A/B tetramer (Escherichia coli (strain K12), UniProt P0AES4+P0AES6)
- assaySummary: DNA gyrase supercoiling activity fluorescence polarisation assay
- Type: biochemical
- setupConditions: 5 nM enzyme, relaxed plasmid, 0.3 mM ATP, ambient temperature; read-out: E. coli DNA gyrase supercoiling IC50
- Method: DNA Gyrase Supercoiling Activity Fluorescence Polarisation Assay The supercoiling reactions may be quenched by the addition of 10 microliters/well of 40 nM oligodeoxynucleotide probe in 3× triplex-forming buffer consisting of 150 mM NaCl, and 150 mM sodium acetate at pH 3.5. […] After 60 minutes, the fluorescence anisotropy of the BODIPY-FL may be measured in a Tecan Ultra plate reader, using 485 nm excitation and 535 nm emission filters equipped with polarizers. […]
pIC50: −log10 of the molar value.
Would you mind labelling by pIC50? At or over 6 is met, under is not met.

{"columns": ["compound", "classLabel"],
 "data": [
  ["C[C@@H]1CN2c3c(cc4c(-c5cccnc5)noc4c3Cl)CC3(C(=O)NC(=O)NC3=O)[C@H]2[C@H](C)O1 (relative stereo)", "met"],
  ["C[C@H]1CN2c3c(cc4c(C(=O)NCC(F)F)noc4c3F)CC3(C(=O)NC(=O)NC3=O)[C@@H]2[C@@H](C)O1", "not met"],
  ["C[C@@H]1CN2c3c(cc4c(-c5ccnc(N6CCOCC6)n5)noc4c3F)CC3(C(=O)NC(=O)NC3=O)[C@H]2[C@H](C)O1", "not met"],
  ["C[C@H]1CN2c3c(cc4c(-c5ccncn5)noc4c3F)CC3(C(=O)NC(=O)NC3=O)[C@@H]2[C@@H](C)O1", "not met"],
  ["C[C@@H]1CN2c3c(cc4c(-c5ccnc(C#N)n5)noc4c3F)CC3(C(=O)NC(=O)NC3=O)[C@H]2[C@H](C)O1", "met"],
  ["CCCN(C)c1noc2c(F)c3c(cc12)CC1(C(=O)NC(=O)NC1=O)[C@H]1[C@H](C)O[C@H](C)CN31 (relative stereo)", "met"],
  ["C[C@H]1CN2c3c(cc4c(-c5ncccn5)noc4c3F)CC3(C(=O)NC(=O)NC3=O)[C@@H]2[C@@H](C)O1", "not met"],
  ["C[C@@H]1CN2c3c(cc4c(-n5cc(-c6cnccn6)cn5)noc4c3F)CC3(C(=O)NC(=O)NC3=O)[C@H]2[C@H](C)O1 (relative stereo)", "not met"]
]}

IN: Is the recorded value of pIC50 equal to or greater than 6 for this compound? C[C@@H]1CN2c3c(cc4c(-n5cncn5)noc4c3F)CC3(C(=O)NC(=O)NC3=O)[C@H]2[C@H](C)O1
OUT: met

IN: Is the recorded value of pIC50 equal to or greater than 6 for this compound? C[C@@H]1CN2c3c(cc4c(-c5ccnc(NCCO)n5)noc4c3F)CC3(C(=O)NC(=O)NC3=O)[C@H]2[C@H](C)O1
OUT: met

----------
- targetOfAssay: Escherichia coli DNA gyrase A/B tetramer (Escherichia coli (strain K12), UniProt P0AES4+P0AES6)
- assaySummary: DNA gyrase supercoiling activity fluorescence polarisation assay
- Type: biochemical
- setupConditions: 5 nM enzyme, relaxed plasmid, 0.3 mM ATP, ambient temperature; read-out: E. coli DNA gyrase supercoiling IC50
observable: pIC50
Give bare numbers, as −log10 of the molar value.

Sample answers from the record:
{"columns": ["compound", "pIC50"],
 "data": [
  ["C[C@@H]1CN2c3c(cc4c(-c5cn[nH]c5)noc4c3F)CC3(C(=O)NC(=O)NC3=O)[C@H]2[C@H](C)O1 (relative stereo)", 6.10],
  ["CCN(CC)c1noc2c(F)c3c(cc12)CC1(C(=O)NC(=O)NC1=O)[C@H]1[C@H](C)O[C@H](C)CN31 (relative stereo)", 5.37],
  ["COC[C@@H]1O[C@H](C)CN2c3c(cc4c(C)noc4c3F)CC3(C(=O)NC(=O)NC3=O)[C@@H]12 (relative stereo)", 6.15],
  ["Cc1ncn(-c2noc3c(F)c4c(cc23)CC2(C(=O)NC(=O)NC2=O)[C@H]2[C@H](C)O[C@H](C)CN42)n1 (relative stereo)", 5.70],
  ["C[C@@H]1CN2c3c(cc4c(-n5cc(C#N)c(N)n5)noc4c3F)CC3(C(=O)NC(=O)NC3=O)[C@H]2[C@H](C)O1 (relative stereo)", 6.00]
]}

Give pIC50 for all compounds that follow.
1. Cc1cc(C(F)(F)F)nn1-c1noc2c(F)c3c(cc12)CC1(C(=O)NC(=O)NC1=O)[C@H]1[C@H](C)O[C@H](C)CN31 (relative stereo)
2. C[C@@H]1CN2c3c(cc4c(C(=O)NC(C)(C)C)noc4c3F)CC3(C(=O)NC(=O)NC3=O)[C@H]2[C@H](C)O1 (relative stereo)
3. C[C@@H]1CN2c3c(cc4c(-c5ccccc5F)noc4c3F)CC3(C(=O)NC(=O)NC3=O)[C@H]2[C@H](C)O1 (relative stereo)
4. C[C@@H]1CN2c3c(cc4c(NCc5ccncc5)noc4c3F)CC3(C(=O)NC(=O)NC3=O)[C@H]2[C@H](C)O1 (relative stereo)
5. C[C@@H]1CN2c3c(cc4c(-c5cncc(N(C)C)n5)noc4c3F)CC3(C(=O)NC(=O)NC3=O)[C@H]2[C@H](C)O1 (relative stereo)

OUT:
[5.15, 5.54, 6.40, 5.62, 5.30]

----------
- targetOfAssay: Escherichia coli DNA gyrase A/B tetramer (Escherichia coli (strain K12), UniProt P0AES4+P0AES6)
- assaySummary: DNA gyrase supercoiling activity fluorescence polarisation assay
- Format: biochemical
- setupConditions: 5 nM enzyme, relaxed plasmid, 0.3 mM ATP, ambient temperature; read-out: E. coli DNA gyrase supercoiling IC50
- Procedure: DNA Gyrase Supercoiling Activity Fluorescence Polarisation Assay The supercoiling reactions may be quenched by the addition of 10 microliters/well of 40 nM oligodeoxynucleotide probe in 3× triplex-forming buffer consisting of 150 mM NaCl, and 150 mM sodium acetate at pH 3.5. […] After 60 minutes, the fluorescence anisotropy of the BODIPY-FL may be measured in a Tecan Ultra plate reader, using 485 nm excitation and 535 nm emission filters equipped with polarizers. […]
observable: IC50 (nM)
Give bare numbers, in nM.

{"columns": ["molecule", "IC50 / nM"],
 "data": [
  ["Cc1nsc2c(F)c3c(cc12)CC1(C(=O)NC(=O)NC1=O)[C@H]1[C@H](C)O[C@H](C)CN31 (relative stereo) [Example 75]", 200],
  ["C[C@@H]1CN2c3c(cc4c(-c5nccn5C)noc4c3Cl)CC3(C(=O)NC(=O)NC3=O)[C@H]2[C@H](C)O1 (relative stereo) [Example 89]", 1300],
  ["C[C@@H]1CN2c3c(cc4c(N(C)Cc5ccccc5)noc4c3F)CC3(C(=O)NC(=O)NC3=O)[C@H]2[C@H](C)O1 (relative stereo) [Example 32]", 600],
  ["C[C@@H]1CN2c3c(cc4c(-c5cncs5)noc4c3F)CC3(C(=O)NC(=O)NC3=O)[C@H]2[C@H](C)O1 (relative stereo) [Example 98]", 400],
  ["C[C@H]1CN2c3c(cc4c(C(F)(F)F)noc4c3F)CC3(C(=O)NC(=O)NC3=O)[C@@H]2[C@@H](C)O1 [Example 92(a)]", 65000],
  ["C[C@@H]1CN2c3c(cc4c(-c5ncc(C(=O)N(C)C)s5)noc4c3F)CC3(C(=O)NC(=O)NC3=O)[C@H]2[C@H](C)O1 (relative stereo) [Example 87]", 6700],
  ["C[C@@H]1CN2c3c(nc4c(-c5cnccn5)noc4c3Cl)CC3(C(=O)NC(=O)NC3=O)[C@H]2[C@H](C)O1 (relative stereo) [Example 110]", 3000],
  ["C[C@@H]1CN2c3c(cc4c(-c5ccncn5)noc4c3Cl)CC3(C(=O)NC(=O)NC3=O)[C@H]2[C@H](C)O1 (relative stereo) [Example 43]", 500]
]}

Give IC50 for all molecules that follow.
1. C[C@@H]1CN2c3c(cc4c(-c5nccs5)noc4c3F)CC3(C(=O)NC(=O)NC3=O)[C@H]2[C@H](C)O1 [Example 96]
2. C[C@@H]1CN2c3c(cc4c(-n5cc(C(=O)N(C)C)cn5)noc4c3F)CC3(C(=O)NC(=O)NC3=O)[C@H]2[C@H](C)O1 (relative stereo) [Example 187]
3. C[C@@H]1CN2c3c(cc4c(C(F)F)noc4c3F)CC3(C(=O)NC(=O)NC3=O)[C@H]2[C@H](C)O1 (racemic) [Example 93]
4. C[C@@H]1CN2c3c(cc4c(C(=O)NC5CCOCC5)noc4c3F)CC3(C(=O)NC(=O)NC3=O)[C@H]2[C@H](C)O1 (relative stereo) [Example 146]
5. C[C@@H]1CN2c3c(cc4c(C(=O)NC5CC5)noc4c3F)CC3(C(=O)NC(=O)NC3=O)[C@H]2[C@H](C)O1 (relative stereo) [Example 150]

OUT:
[700, 3300, 700, 4900, 1300]

Give IC50 for all molecules that follow.
1. C[C@@H]1CN2c3c(cc4c(C(=O)NCC(F)F)noc4c3F)CC3(C(=O)NC(=O)NC3=O)[C@H]2[C@H](C)O1 [Example 94(b)]
2. C[C@@H]1CN2c3c(cc4c(OCc5ccccc5)noc4c3F)CC3(C(=O)NC(=O)NC3=O)[C@H]2[C@H](C)O1 (relative stereo) [Example 52]
3. C[C@@H]1CN2c3c(cc4c(-n5cc(CO)cn5)noc4c3F)CC3(C(=O)NC(=O)NC3=O)[C@H]2[C@H](C)O1 (relative stereo) [Example 190]

OUT:
1: 800; 2: 2400; 3: 2100

Give IC50 for all molecules that follow.
1. C[C@@H]1CN2c3c(cc4c(-c5ccncc5)noc4c3F)CC3(C(=O)NC(=O)NC3=O)[C@H]2[C@H](C)O1 (relative stereo) [Example 82]
2. C[C@@H]1CN2c3c(nc4c(C(=O)NCc5ccccc5)noc4c3Cl)CC3(C(=O)NC(=O)NC3=O)[C@H]2[C@H](C)O1 (relative stereo) [Example 131]

OUT:
200
4400

Give IC50 for all molecules that follow.
1. C[C@@H]1CN2c3c(cc4c(NCc5ccccn5)noc4c3F)CC3(C(=O)NC(=O)NC3=O)[C@H]2[C@H](C)O1 (racemic) [Example 14]
2. C[C@@H]1CN2c3c(cc4c(C(=O)N5CCOCC5)noc4c3F)CC3(C(=O)NC(=O)NC3=O)[C@H]2[C@H](C)O1 (relative stereo) [Example 135]

OUT:
2000
3300
